Test system: normal primary NK cells, pool 2 (3 donors) (IL-2 2.5 ng/mL)
Experiment: percent inhibition of viability; higher = more inhibition
Settings: 72 h; 1 nM
# percent inhibition of viability values compiled below
REPORTED METRIC: percent inhibition of viability (%)

COMPOUND: CNC(=O)c1nn(C)c2c1C(C)(C)Cc1cnc(Nc3ccc(N4CCN(C)CC4)cc3)nc1-2 [Milciclib] (max concentration tested 10000 nM)
SYSTEM NAME: normal primary NK cells, pool 2 (3 donors) (IL-2 2.5 ng/mL)
REPORTED METRIC: percent inhibition of viability
MEASURED NUMBER: -6.1
--
COMPOUND: O=C(O)c1ccc2c(c1)nc(Nc1cccc(Cl)c1)c1ccncc12 [Silmitasertib] (max concentration tested 10000 nM)
SYSTEM NAME: normal primary NK cells, pool 2 (3 donors) (IL-2 2.5 ng/mL)
REPORTED METRIC: percent inhibition of viability
MEASURED NUMBER: -8.83
--
COMPOUND: NC(=O)c1cccc2cn(-c3ccc([C@@H]4CCCNC4)cc3)nc12 [Niraparib] (max concentration tested 10000 nM)
SYSTEM NAME: normal primary NK cells, pool 2 (3 donors) (IL-2 2.5 ng/mL)
REPORTED METRIC: percent inhibition of viability
MEASURED NUMBER: -5.25
--
COMPOUND: CCc1cc(Nc2nccc(-c3c(-c4ccc(OC)c(C(=O)Nc5c(F)cccc5F)c4)nc4ccccn34)n2)c(OC)cc1N1CCC(N2CCN(S(C)(=O)=O)CC2)CC1 (max concentration tested 10000 nM)
SYSTEM NAME: normal primary NK cells, pool 2 (3 donors) (IL-2 2.5 ng/mL)
REPORTED METRIC: percent inhibition of viability
MEASURED NUMBER: -9.34
--
COMPOUND: CN1CCN(CCOc2cc(OC3CCOCC3)c3c(Nc4c(Cl)ccc5c4OCO5)ncnc3c2)CC1 [Saracatinib] (max concentration tested 10000 nM)
SYSTEM NAME: normal primary NK cells, pool 2 (3 donors) (IL-2 2.5 ng/mL)
REPORTED METRIC: percent inhibition of viability
MEASURED NUMBER: -0.71
--
COMPOUND: COc1ccccc1S(=O)(=O)Nc1ccc2c(c1)CN(C)C(=O)N2 [PFI-1] (max concentration tested 10000 nM)
SYSTEM NAME: normal primary NK cells, pool 2 (3 donors) (IL-2 2.5 ng/mL)
REPORTED METRIC: percent inhibition of viability
MEASURED NUMBER: -9.32
--
COMPOUND: CNC(=O)c1cc(Oc2ccc(NC(=O)Nc3ccc(Cl)c(C(F)(F)F)c3)cc2)ccn1 [Sorafenib] (max concentration tested 1000 nM)
SYSTEM NAME: normal primary NK cells, pool 2 (3 donors) (IL-2 2.5 ng/mL)
REPORTED METRIC: percent inhibition of viability
MEASURED NUMBER: -3.3
--
COMPOUND: CN(C)Cc1ccc(S(=O)(=O)n2ccc(/C=C/C(=O)NO)c2)cc1 [Resminostat] (max concentration tested 10000 nM)
SYSTEM NAME: normal primary NK cells, pool 2 (3 donors) (IL-2 2.5 ng/mL)
REPORTED METRIC: percent inhibition of viability
MEASURED NUMBER: -6.44
--
COMPOUND: CCc1c(C(=O)C(N)=O)c2c(OCC(=O)O)cccc2n1Cc1ccccc1 [Varespladib] (max concentration tested 10000 nM)
SYSTEM NAME: normal primary NK cells, pool 2 (3 donors) (IL-2 2.5 ng/mL);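 further: normalised to DMSO-only wells as negative and benzethonium chloride as positive control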
REPORTED METRIC: percent inhibition of viability
MEASURED NUMBER: -5.85
--
COMPOUND: C/C(=C\c1csc(C)n1)[C@@H]1C[C@@H]2O[C@]2(C)CCC[C@H](C)[C@H](O)[C@@H](C)C(=O)C(C)(C)[C@@H](O)CC(=O)O1 [Patupilone] (max concentration tested 1000 nM)
SYSTEM NAME: normal primary NK cells, pool 2 (3 donors) (IL-2 2.5 ng/mL);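 further: normalised to DMSO-only wells as negative and benzethonium chloride as positive control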
REPORTED METRIC: percent inhibition of viability
MEASURED NUMBER: -5.69
--
COMPOUND: O=c1ncn2nc(Sc3ccc(F)cc3F)ccc2c1-c1c(Cl)cccc1Cl [VX 745] (max concentration tested 10000 nM)
SYSTEM NAME: normal primary NK cells, pool 2 (3 donors) (IL-2 2.5 ng/mL);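 further: normalised to DMSO-only wells as negative and benzethonium chloride as positive control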
REPORTED METRIC: percent inhibition of viability
MEASURED NUMBER: -5.75
--
COMPOUND: Cc1nc(Nc2ncc(C(=O)Nc3c(C)cccc3Cl)s2)cc(N2CCN(CCO)CC2)n1 [Dasatinib] (max concentration tested 1000 nM)
SYSTEM NAME: normal primary NK cells, pool 2 (3 donors) (IL-2 2.5 ng/mL);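 further: normalised to DMSO-only wells as negative and benzethonium chloride as positive control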
REPORTED METRIC: percent inhibition of viability
MEASURED NUMBER: 18.3

Source listed as the supplement of paper PMC5908809.
